Biological target: NRAS G12C (Homo sapiens (Human), UniProt P01111+P62937, G12C)
Sequence (P01111 whole entry G12C, one chain of several): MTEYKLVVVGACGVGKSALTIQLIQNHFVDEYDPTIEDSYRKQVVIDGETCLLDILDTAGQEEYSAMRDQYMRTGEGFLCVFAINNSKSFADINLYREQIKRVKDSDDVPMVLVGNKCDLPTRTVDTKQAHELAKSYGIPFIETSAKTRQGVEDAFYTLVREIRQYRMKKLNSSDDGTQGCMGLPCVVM
Experiment: Ras-Raf (BRAF RBD) disruption / FRET / MOA assay, NRAS G12C
Type: biochemical
Conditions: read-out: IC50* NRAS G12C FRET data
pIC50: −log10 of the molar value.
readout_kind: pIC50

The molecule C=CC(=O)N(C)CCN1CCN(C(=O)N(C)[C@H](C(=O)N[C@H]2Cc3nc(cs3)-c3ccc4c(c3)c(c(-c3cccnc3[C@H](C)OC)n4CC)CC(C)(C)COC(=O)[C@@H]3CCCN(N3)C2=O)C(C)C)CC1 (atropisomer, axis not shown) , tested on NRAS G12C (Homo sapiens (Human), UniProt P01111+P62937, G12C), showed pIC50 of 6.00 to 7.00

The molecule CC#CC(=O)N1C[C@H](C)[C@H](C(=O)N(C)[C@H](C(=O)N[C@H]2Cc3cccc(c3)-c3ccc4c(c3)c(c(-c3cccnc3[C@H](C)OC)n4CC)CC(C)(C)COC(=O)[C@@H]3CCCN(N3)C2=O)C(C)C)C1 (atropisomer, axis not shown) , tested on NRAS G12C (Homo sapiens (Human), UniProt P01111+P62937, G12C), showed pIC50 of 6.00 to 7.00

The molecule CC#CC(=O)N1CC[C@H](C(=O)N(C)[C@H](C(=O)N[C@H]2Cc3cccc(c3)-c3ccc4c(c3)c(c(-c3cccnc3[C@H](C)OC)n4C#N)CC(C)(C)COC(=O)[C@@H]3CCCN(N3)C2=O)C(C)C)C1 (atropisomer, axis not shown) , tested on NRAS G12C (Homo sapiens (Human), UniProt P01111+P62937, G12C), showed pIC50 of < 5.00

The molecule CCn1c(-c2cccnc2COC)c2c3cc(ccc31)-c1cc(O)cc(c1)C[C@H](NC(=O)[C@H](C(C)C)N(C)C(=O)[C@H]1CCN(C(=O)/C=C/CN(C)C)C1)C(=O)N1CCC[C@H](N1)C(=O)OCC(C)(C)C2 , tested on NRAS G12C (Homo sapiens (Human), UniProt P01111+P62937, G12C), showed pIC50 of 7.00 to 8.00

The molecule C=CC(=O)N1CCOC2(C1)CN(C(=O)N(C)[C@H](C(=O)N[C@H]1Cc3cccc(c3)-c3ccc4c(c3)c(c(-c3cccnc3[C@H](C)OC)n4CC(F)(F)F)CC(C)(C)COC(=O)[C@@H]3CCCN(N3)C1=O)C(C)C)C2 (atropisomer, axis not shown) , tested on NRAS G12C (Homo sapiens (Human), UniProt P01111+P62937, G12C), showed pIC50 of 7.00 to 8.00

The molecule CCn1c(-c2cccnc2[C@H](C)OC)c2c3cc(ccc31)N1CCC[C@@H](C[C@H](NC(=O)[C@H](C(C)C)N(C)C(=O)[C@H]3CCN(C(=O)C#CC(C)(C)N4CCC4)C3)C(=O)N3CCC[C@H](N3)C(=O)OCC(C)(C)C2)C1 (atropisomer, axis not shown) , tested on NRAS G12C (Homo sapiens (Human), UniProt P01111+P62937, G12C), showed pIC50 of 7.00 to 8.00

The molecule CCn1c(-c2cccnc2[C@H](C)OC)c2c3cc(ccc31)-c1csc(n1)C[C@H](NC(=O)[C@@H](COC1CN(C(=O)C#CC(C)(C)N(C)C)C1)OC)C(=O)N1CCC[C@H](N1)C(=O)OCC(C)(C)C2 (atropisomer, axis not shown) , tested on NRAS G12C (Homo sapiens (Human), UniProt P01111+P62937, G12C), showed pIC50 of > 8.00

The molecule COCc1ncccc1-c1nc2ccc3cc2n1CC(C)(C)COC(=O)[C@@H]1CCCN(N1)C(=O)[C@@H](NC(=O)[C@H](C(C)C)N(C)C(=O)[C@H]1CCN(C(=O)C#CCN2CCOCC2)C1)Cc1cc(O)cc-3c1 , tested on NRAS G12C (Homo sapiens (Human), UniProt P01111+P62937, G12C), showed pIC50 of 6.00 to 7.00

====

Hi there, I'd appreciate the recorded IC50 for every entry that follows.
Molecular target: KRAS G13D (Homo sapiens (Human), UniProt P01116+P62937, G13D)
Sequence (P01116-2 other isoform, or with tags, fused parts or gaps G13D): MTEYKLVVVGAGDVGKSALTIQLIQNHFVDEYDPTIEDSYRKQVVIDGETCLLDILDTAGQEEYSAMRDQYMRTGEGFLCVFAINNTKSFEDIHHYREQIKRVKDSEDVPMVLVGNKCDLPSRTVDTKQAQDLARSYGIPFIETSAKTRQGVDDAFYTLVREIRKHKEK
Sequence (P62937 whole entry): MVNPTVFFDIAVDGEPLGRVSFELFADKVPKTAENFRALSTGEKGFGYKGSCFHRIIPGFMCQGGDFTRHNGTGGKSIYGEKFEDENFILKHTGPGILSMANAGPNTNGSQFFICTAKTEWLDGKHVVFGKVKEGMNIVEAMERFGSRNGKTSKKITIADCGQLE
Experiment: Ras-Raf (BRAF RBD) disruption / FRET / MOA assay, KRAS G13D
Assay type: biochemical
Conditions: read-out: IC50* KRAS G13D FRET data

Lab note: C=CS(=O)(=O)N1CC2(CCN([C@H](C(=O)N[C@H]3Cc4cc(O)cc(c4)-c4ccc5c(c4)c(c(-c4cccnc4[C@H](C)OC)n5CC)CC(C)(C)COC(=O)[C@@H]4CCCN(N4)C3=O)C(C)C)C2=O)C1 (atropisomer, axis not shown) gave IC50 of 0.1 to 1 µM

Lab note: C=CC(=O)N1CCO[C@]2(CCN(C(=O)N(C)[C@H](C(=O)N[C@H]3Cc4nc(cs4)-c4ccc5c(c4)c(c(-c4cccnc4[C@H](C)OC)n5CC(F)(F)F)CC(C)(C)COC(=O)[C@@H]4CCCN(N4)C3=O)C(C)C)C2)C1 (atropisomer, axis not shown) gave IC50 of 1 to 10 µM

Lab note: CO[C@@H](C)c1ncccc1-c1c2c3cc(ccc3n1CC(F)(F)F)N1CCO[C@@H](C[C@H](NC(=O)[C@H](C(C)C)N3CC[C@@]4(CCN(C(=O)C#CC(C)(C)N(C)C)C4)C3=O)C(=O)N3CCC[C@H](N3)C(=O)OCC(C)(C)C2)C1 (atropisomer, axis not shown) gave IC50 of > 10 µM

Lab note: C=CC(=O)N1CC[C@H](C(=O)N(C)[C@H](C(=O)N[C@H]2Cc3cccc(c3)-c3ccc4c(c3)c(c(-c3cccnc3[C@H](C)OC)n4CC)CC(C)(C)COC(=O)[C@@H]3CCCN(N3)C2=O)C2CCC2)C1 (atropisomer, axis not shown) gave IC50 of 1 to 10 µM

====

Target: NRAS Q61R (Homo sapiens (Human), UniProt P01111+P62937, Q61R)
Sequence (P01111 whole entry Q61R): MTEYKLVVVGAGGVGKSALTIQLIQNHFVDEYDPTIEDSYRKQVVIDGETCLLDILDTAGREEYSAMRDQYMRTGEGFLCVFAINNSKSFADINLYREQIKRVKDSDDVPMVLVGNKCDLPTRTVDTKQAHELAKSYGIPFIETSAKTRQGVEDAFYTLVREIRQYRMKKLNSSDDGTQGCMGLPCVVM
Sequence (P62937 whole entry): as the sequence (P62937 whole entry) above
Experiment: Ras-Raf (BRAF RBD) disruption / FRET / MOA assay, NRAS Q61R
Assay type: biochemical
Conditions: NRAS Q61R; Ras-Raf disruption/FRET/MOA assay; read-out: IC50* NRAS Q61R FRET data
pIC50: −log10 of the molar value.
readout_kind: pIC50

Lab note: C=CC(=O)N1CC[C@H](C(=O)N(C)[C@H](C(=O)N[C@H]2Cc3cc(cc(C(F)F)c3)-c3ccc4c(c3)c(c(-c3cc(N5CCN(C)CC5)cnc3[C@H](C)OC)n4CC(F)(F)F)CC(C)(C)COC(=O)[C@@H]3CCCN(N3)C2=O)C(C)C)C1 (atropisomer, axis not shown) [Example A357] gave pIC50 of 6.00 to 7.00

Lab note: C=C(F)C(=O)N1CC2(CCN(C(=O)N(C)[C@H](C(=O)N[C@H]3Cc4nc(cs4)-c4ccc5c(c4)c(c(-c4cccnc4[C@H](C)OC)n5CC)CC(C)(C)COC(=O)[C@@H]4CCCN(N4)C3=O)C(C)C)CC2)C1 (atropisomer, axis not shown) [Example A682] gave pIC50 of 6.00 to 7.00

Lab note: CCn1c(-c2cccnc2[C@H](C)OC)c2c3cc(ccc31)-c1cccc(c1)C[C@H](NC(=O)[C@H](C(C)C)N1CC[C@@]3(CCN(C(=O)C#C[C@H]4COCCN4C4COC4)C3)C1=O)C(=O)N1CCC[C@H](N1)C(=O)OCC(C)(C)C2 (atropisomer, axis not shown) [Example A567] gave pIC50 of 5.00 to 6.00

Lab note: C=CC(=O)N1CC[C@@]2(CCN2C(=O)N(C)[C@H](C(=O)N[C@H]2Cc3nc(cs3)-c3ccc4c(c3)c(c(-c3cccnc3[C@H](C)OC)n4CC)CC(C)(C)COC(=O)[C@@H]3CCCN(N3)C2=O)C(C)C)C1 (atropisomer, axis not shown) [Example A661] gave pIC50 of 6.00 to 7.00

====

Target: NRAS Q61K (Homo sapiens (Human), UniProt P01111+P62937, Q61K)
Sequence (P01111 whole entry Q61K, one chain of several): as the sequence (P01111 whole entry G12C, one chain of several) above, with C12G, Q61K counted along it
Assay: Ras-Raf (BRAF RBD) disruption / FRET / MOA assay, NRAS Q61K
Assay type: biochemical
Details: NRAS Q61K; Ras-Raf disruption/FRET/MOA assay; read-out: IC50* NRAS Q61K FRET data
readout_kind: IC50

Lab note: C=CC(=O)N1CC[C@H](C(=O)N(C)[C@H](C(=O)N[C@H]2Cc3cccc(c3)-c3ccc4c(c3)c(c(-c3cccnc3[C@H](C)OC)n4CC3COC3)CC(C)(C)COC(=O)[C@@H]3CCCN(N3)C2=O)C(C)C)C1 (atropisomer, axis not shown) gave IC50 of 1000 to 10000 nM

Lab note: CCn1c(-c2cccnc2[C@H](C)OC)c2c3cc(ccc31)-c1cccc(c1)C[C@H](NC(=O)[C@H](C(C)C)N(C)C(=O)C1(F)CCN(C(=O)/C=C/CN(C)C)CC1)C(=O)N1CCC[C@H](N1)C(=O)OCC(C)(C)C2 (atropisomer, axis not shown) gave IC50 of 100 to 1000 nM

Lab note: C=CC(=O)N(C)C1CN(C(=O)N(C)[C@H](C(=O)N[C@H]2Cc3nc(cs3)-c3ccc4c(c3)c(c(-c3cccnc3[C@H](C)OC)n4CC)CC(C)(C)COC(=O)[C@@H]3CCCN(N3)C2=O)C(C)C)C1 (atropisomer, axis not shown) gave IC50 of 10 to 100 nM

Lab note: CCn1c(-c2cccnc2[C@H](C)OC)c2c3cc(ccc31)-c1csc(n1)C[C@H](NC(=O)C[C@H](C)OC1CN(C(=O)C#CC(C)(C)N(C)C)C1)C(=O)N1CCC[C@H](N1)C(=O)OCC(C)(C)C2 (atropisomer, axis not shown) gave IC50 of 1000 to 10000 nM
